target: UniProt:P04062; test: Inhibition of recombinant human GBA pre-incubated for 30 mins followed by 4-methylumbelliferyl-beta-D-glucopyranoside substrate addition and measured after 10 mins using compound incubated at pH 5.2 for 24 hrs prior to test by fluorescence assay
Sequence (P04062 whole entry): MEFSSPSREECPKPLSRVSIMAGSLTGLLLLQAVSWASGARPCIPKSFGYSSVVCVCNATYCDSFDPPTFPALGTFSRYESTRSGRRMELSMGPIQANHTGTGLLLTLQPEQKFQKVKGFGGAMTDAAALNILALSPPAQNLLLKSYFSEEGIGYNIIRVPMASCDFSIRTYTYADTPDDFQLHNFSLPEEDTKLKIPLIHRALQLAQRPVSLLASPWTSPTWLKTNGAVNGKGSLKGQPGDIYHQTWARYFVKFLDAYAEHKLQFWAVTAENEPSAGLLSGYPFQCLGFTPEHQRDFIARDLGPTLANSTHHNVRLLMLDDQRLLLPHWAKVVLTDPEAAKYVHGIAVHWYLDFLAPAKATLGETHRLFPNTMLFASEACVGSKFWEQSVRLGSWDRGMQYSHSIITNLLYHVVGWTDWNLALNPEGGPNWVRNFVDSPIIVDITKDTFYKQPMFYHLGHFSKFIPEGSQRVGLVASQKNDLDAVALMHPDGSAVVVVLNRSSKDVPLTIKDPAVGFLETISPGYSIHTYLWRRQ
pIC50: −log10 of the molar value.
test readout: pIC50

In [3]: df
Out[3]:
                                   molecule    study_target  measurement
0  CCCCOC1OCC(CNC(=N)N2C[C@@H](O)[C@H](O)[C@@H](O)C2)O1 (some centres not stated)  UniProt:P04062       < 4.52
1  CCCCCCCCOC1OCC(CNC(=N)N2C[C@@H](O)[C@H](O)[C@@H](O)C2)O1 (some centres not stated)  UniProt:P04062       < 4.52
